Here is a set of compounds with reported IC50 for Serine/threonine-protein kinase pim-2 (Homo sapiens, UniProt Q9P1W9), compiled from the literature.
Reported Endpoint: IC50 (nM)

INSERT INTO results (compound, reported_endpoint, result_value) VALUES
  ('CC1CCC2C(C)(C)CCCC2(C)c2c1oc1c(C=O)c(O)c(O)cc21 (stereo not drawn)', 'IC50', 5310),
  ('COc1ccc2nc(N3CCCCC3)c(-c3cc(-c4cccc(O)c4)nc(S)c3C#N)cc2c1', 'IC50', 1490);

P: COc1ccc2nc(N3CCOCC3)c(-c3cc(-c4cccc(O)c4)[nH]c(=O)c3C#N)cc2c1
Q: CCCCCN1CCN(c2ccc(-c3cnc4ccc(/C=C5\SC(=O)NC5=O)nn34)cc2F)CC1
R: CN(C)CCNc1cncc(-c2ccc3c(c2)/C(=C/c2cnc[nH]2)C(=O)N3)n1
Would you mind ranking these compounds by ascending IC50? Please respond with the labels ordered as the question requires.
R, Q, P
